meta.source: ChEMBL document CHEMBL5291721

# Target System: Bile salt export pump (Homo sapiens); further: assay procedure not described here
# Sequence (O95342 whole entry): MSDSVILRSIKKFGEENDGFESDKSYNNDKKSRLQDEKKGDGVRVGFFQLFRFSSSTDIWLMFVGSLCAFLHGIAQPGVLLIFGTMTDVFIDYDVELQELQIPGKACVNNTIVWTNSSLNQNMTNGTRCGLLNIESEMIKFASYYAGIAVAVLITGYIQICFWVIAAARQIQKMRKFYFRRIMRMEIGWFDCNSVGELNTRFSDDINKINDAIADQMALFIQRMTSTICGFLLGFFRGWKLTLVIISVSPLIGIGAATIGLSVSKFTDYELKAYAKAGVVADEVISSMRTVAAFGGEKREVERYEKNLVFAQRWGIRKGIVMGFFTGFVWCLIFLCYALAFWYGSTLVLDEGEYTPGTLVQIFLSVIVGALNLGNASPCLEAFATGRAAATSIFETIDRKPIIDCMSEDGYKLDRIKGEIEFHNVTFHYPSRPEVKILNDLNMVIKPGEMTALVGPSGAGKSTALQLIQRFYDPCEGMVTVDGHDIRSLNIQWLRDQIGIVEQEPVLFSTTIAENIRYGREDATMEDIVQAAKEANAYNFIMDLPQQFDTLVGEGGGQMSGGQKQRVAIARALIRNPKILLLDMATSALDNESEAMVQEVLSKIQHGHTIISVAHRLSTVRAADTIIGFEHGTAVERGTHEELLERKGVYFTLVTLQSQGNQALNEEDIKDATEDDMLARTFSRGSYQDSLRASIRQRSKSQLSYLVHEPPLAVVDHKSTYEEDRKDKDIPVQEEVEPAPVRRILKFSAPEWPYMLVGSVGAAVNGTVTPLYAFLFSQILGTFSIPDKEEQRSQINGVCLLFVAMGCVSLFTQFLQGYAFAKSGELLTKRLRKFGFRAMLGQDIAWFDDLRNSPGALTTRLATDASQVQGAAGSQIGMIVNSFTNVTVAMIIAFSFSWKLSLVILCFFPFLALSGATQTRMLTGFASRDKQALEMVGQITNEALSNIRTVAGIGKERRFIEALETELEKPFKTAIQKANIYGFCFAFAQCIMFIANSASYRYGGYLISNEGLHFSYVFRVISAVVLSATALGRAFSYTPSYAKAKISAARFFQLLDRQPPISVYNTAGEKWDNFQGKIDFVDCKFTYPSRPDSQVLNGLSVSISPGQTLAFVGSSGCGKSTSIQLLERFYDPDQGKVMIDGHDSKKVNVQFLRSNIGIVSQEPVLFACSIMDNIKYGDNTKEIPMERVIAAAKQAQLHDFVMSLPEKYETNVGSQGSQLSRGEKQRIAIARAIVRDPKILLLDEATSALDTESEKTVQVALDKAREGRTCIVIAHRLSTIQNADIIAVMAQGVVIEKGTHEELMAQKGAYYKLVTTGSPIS
# Type: functional
Reported AC50 by item:

Take a look at these entries with their results.
{"columns": ["Compound", "Recorded Result"],
 "data": [
  ["CC(C)N(CCCCOCC(=O)NS(C)(=O)=O)c1cnc(-c2ccccc2)c(-c2ccccc2)n1", "5.7 µM"],
  ["COc1ccnc(C[S+]([O-])c2nc3ccc(OC(F)F)cc3[nH]2)c1OC (centres undefined)", "190 µM"],
  ["CCCN(CCC)CCc1cccc2c1CC(=O)N2", "> 300 µM"]
]}

Please look at the following compound next.
Query: Give the reported AC50 for "CNC(=O)c1cc(Oc2ccc(NC(=O)Nc3ccc(Cl)c(C(F)(F)F)c3)c(F)c2)ccn1" (system: Bile salt export pump (Homo sapiens)). Further: assay procedure not described here.
Result: 3 µM

---

# Target System: Beta-1 adrenergic receptor (Homo sapiens, UniProt P08588); further: assay procedure not described here
# Sequence (P08588 whole entry): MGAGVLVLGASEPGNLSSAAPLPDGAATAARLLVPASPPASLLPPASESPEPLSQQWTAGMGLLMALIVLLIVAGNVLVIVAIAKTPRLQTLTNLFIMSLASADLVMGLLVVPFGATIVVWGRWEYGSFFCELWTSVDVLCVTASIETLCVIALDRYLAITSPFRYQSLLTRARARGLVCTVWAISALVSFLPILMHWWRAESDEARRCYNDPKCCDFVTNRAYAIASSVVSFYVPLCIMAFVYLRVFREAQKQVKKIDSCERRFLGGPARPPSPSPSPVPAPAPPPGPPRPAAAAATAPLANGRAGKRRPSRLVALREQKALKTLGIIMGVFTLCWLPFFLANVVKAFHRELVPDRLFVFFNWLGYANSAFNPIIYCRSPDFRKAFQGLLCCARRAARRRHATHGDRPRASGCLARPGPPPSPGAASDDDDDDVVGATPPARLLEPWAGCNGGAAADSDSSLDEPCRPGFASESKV
# Format: functional
Reported AC50 by item:

Take a look at these entries with their results.
{"columns": ["Compound", "Target System", "AC50"],
 "data": [
  ["CN(c1nccc(=O)[nH]1)C1CCN(c2nc3ccccc3n2Cc2ccc(F)cc2)CC1", "Beta-1 adrenergic receptor (Homo sapiens, UniProt P08588)", "> 30 µM"],
  ["Clc1ccc(C(Cn2ccnc2)OCc2ccc(Sc3ccccc3)cc2)c(Cl)c1 (centres undefined)", "Beta-1 adrenergic receptor (Homo sapiens, UniProt P08588)", "> 30 µM"],
  ["COc1ccnc(C[S+]([O-])c2nc3ccc(OC(F)F)cc3[nH]2)c1OC (centres undefined)", "Beta-1 adrenergic receptor (Homo sapiens, UniProt P08588)", "> 10 µM"],
  ["CCSc1ccc2c(c1)N(CCCN1CCN(C)CC1)c1ccccc1S2", "Beta-1 adrenergic receptor (Homo sapiens, UniProt P08588)", "> 30 µM"],
  ["CCCCNc1ccc(C(=O)OCCN(C)C)cc1", "Beta-1 adrenergic receptor (Homo sapiens, UniProt P08588)", "> 10 µM"]
]}

Query: Request the reported AC50 associated with "O=C(Nc1nc(-c2cc(Cl)cs2)c(N2CCN(C3CCCCC3)CC2)s1)c1cnc(N2CCC(C(=O)O)CC2)c(Cl)c1"
Result: > 10 µM

Query: Request the reported AC50 associated with CCN(CC)C(=O)C1(c2ccccc2)CC1CN (centres undefined)
Result: > 30 µM

Query: Request the reported AC50 associated with NS(=O)(=O)c1cc(C2(O)NC(=O)c3ccccc32)ccc1Cl (centres undefined)
Result: > 10 µM

Query: Request the reported AC50 associated with "CCn1cc(C(=O)O)c(=O)c2cc(F)c(N3CCN(C)CC3)cc21"
Result: > 30 µM

---

# Target System: Progesterone receptor (Homo sapiens, UniProt P06401); further: assay procedure not described here
# Sequence (P06401 whole entry): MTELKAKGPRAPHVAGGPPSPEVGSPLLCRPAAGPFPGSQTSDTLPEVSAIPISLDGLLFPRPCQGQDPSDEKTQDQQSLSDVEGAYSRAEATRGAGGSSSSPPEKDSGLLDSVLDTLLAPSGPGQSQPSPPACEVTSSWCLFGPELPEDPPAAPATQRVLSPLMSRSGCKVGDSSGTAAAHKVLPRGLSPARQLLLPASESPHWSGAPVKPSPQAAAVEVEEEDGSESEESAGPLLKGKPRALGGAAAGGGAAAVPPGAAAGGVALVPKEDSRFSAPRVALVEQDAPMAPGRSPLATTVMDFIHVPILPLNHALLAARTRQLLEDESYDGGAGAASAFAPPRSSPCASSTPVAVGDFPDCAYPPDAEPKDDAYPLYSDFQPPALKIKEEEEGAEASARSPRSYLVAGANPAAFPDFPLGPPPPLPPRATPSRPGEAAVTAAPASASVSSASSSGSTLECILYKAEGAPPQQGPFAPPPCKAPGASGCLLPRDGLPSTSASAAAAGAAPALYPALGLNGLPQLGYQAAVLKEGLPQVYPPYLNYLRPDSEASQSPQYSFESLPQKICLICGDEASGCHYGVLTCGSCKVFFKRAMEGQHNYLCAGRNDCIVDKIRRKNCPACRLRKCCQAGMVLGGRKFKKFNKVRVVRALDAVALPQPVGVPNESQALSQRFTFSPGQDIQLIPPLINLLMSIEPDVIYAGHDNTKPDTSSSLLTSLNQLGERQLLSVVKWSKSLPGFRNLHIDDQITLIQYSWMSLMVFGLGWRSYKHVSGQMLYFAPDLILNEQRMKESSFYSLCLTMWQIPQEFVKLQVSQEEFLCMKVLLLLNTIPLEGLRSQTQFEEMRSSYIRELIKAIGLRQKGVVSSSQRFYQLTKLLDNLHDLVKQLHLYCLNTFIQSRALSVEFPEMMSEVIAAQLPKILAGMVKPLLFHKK
Property Measured: AC50

Take a look at these entries with their results.
{"columns": ["Molecule", "AC50"],
 "data": [
  ["Nc1nc(N)nc(Nc2ccc([As]3SCC(CO)S3)cc2)n1 (stereo not given) [MELARSOPROL]", "> 30 µM"],
  ["C[C@@H]1C[C@H]2[C@@H]3C[C@H](F)C4=CC(=O)C=C[C@]4(C)[C@@]3(Cl)[C@@H](O)C[C@]2(C)[C@H]1C(=O)COC(=O)C(C)(C)C [CLOCORTOLONE PIVALATE]", "0.0118 µM"],
  ["c1ccc2c(CC3=NCCN3)cccc2c1 [NAPHAZOLINE]", "> 30 µM"],
  ["Cc1cc2c(OCC(O)CNC(C)C)cccc2[nH]1 (stereo not given) [MEPINDOLOL]", "> 30 µM"]
]}

Please look at the following molecule next.
Query: Give the reported AC50 for C1CNCCN1 [PIPERAZINE] (system: Progesterone receptor (Homo sapiens, UniProt P06401)). Further: assay procedure not described here.
Result: > 30 µM

---

Reported AC50 by item:
# Target System: 3',5'-cyclic-AMP phosphodiesterase 4D (Homo sapiens, UniProt Q08499); further: assay procedure not described here
# Sequence (Q08499 whole entry): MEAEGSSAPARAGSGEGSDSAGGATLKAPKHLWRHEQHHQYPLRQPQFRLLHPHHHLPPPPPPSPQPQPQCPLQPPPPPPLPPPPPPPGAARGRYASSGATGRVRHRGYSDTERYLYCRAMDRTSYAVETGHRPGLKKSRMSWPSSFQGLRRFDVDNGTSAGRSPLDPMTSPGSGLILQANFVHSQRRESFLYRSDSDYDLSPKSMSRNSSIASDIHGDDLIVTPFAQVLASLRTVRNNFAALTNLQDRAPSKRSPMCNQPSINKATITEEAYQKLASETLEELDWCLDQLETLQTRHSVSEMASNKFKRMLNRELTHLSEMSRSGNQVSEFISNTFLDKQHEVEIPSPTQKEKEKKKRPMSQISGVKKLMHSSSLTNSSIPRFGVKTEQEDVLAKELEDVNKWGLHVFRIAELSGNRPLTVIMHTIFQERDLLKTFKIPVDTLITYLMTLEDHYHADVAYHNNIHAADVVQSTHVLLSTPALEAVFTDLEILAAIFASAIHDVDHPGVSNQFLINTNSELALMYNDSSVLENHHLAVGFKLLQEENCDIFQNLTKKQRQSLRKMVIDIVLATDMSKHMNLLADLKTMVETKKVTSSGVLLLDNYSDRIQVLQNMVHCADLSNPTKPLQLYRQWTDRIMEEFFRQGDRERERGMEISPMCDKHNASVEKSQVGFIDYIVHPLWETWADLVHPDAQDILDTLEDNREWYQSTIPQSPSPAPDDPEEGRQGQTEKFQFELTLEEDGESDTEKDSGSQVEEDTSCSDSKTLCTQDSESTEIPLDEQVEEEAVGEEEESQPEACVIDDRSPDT
# Format: functional

Query: Give the reported AC50 for COc1c(O[C@@H]2O[C@H](CO)[C@@H](O)[C@H](O)[C@H]2O)cc2c(c1OC)-c1ccc(SC)c(=O)cc1[C@@H](NC(C)=O)CC2 [THIOCOLCHICOSIDE] (system: 3',5'-cyclic-AMP phosphodiesterase 4D (Homo sapiens, UniProt Q08499)). Further: assay procedure not described here.
Result: > 30 µM

Query: Give the reported AC50 for COc1ccc(C(CN(C)C)C2(O)CCCCC2)cc1 (stereo not given) (system: 3',5'-cyclic-AMP phosphodiesterase 4D (Homo sapiens, UniProt Q08499)). Further: assay procedure not described here.
Result: > 10 µM

Query: Give the reported AC50 for "CCCN(CCC)CCc1cccc2c1CC(=O)N2" (system: 3',5'-cyclic-AMP phosphodiesterase 4D (Homo sapiens, UniProt Q08499)). Further: assay procedure not described here.
Result: > 30 µM

Query: Give the reported AC50 for "CC(=O)OCC[N+](C)(C)C" (system: 3',5'-cyclic-AMP phosphodiesterase 4D (Homo sapiens, UniProt Q08499)). Further: assay procedure not described here.
Result: > 30 µM

Query: Give the reported AC50 for "CO[C@@]1(NC(=O)CSCC#N)C(=O)N2C(C(=O)O)=C(CSc3nnnn3C)CS[C@@H]21" (system: 3',5'-cyclic-AMP phosphodiesterase 4D (Homo sapiens, UniProt Q08499)). Further: assay procedure not described here.
Result: > 30 µM

---

Reported AC50 by item:
# Target System: Prostaglandin G/H synthase 1 (Rattus norvegicus, UniProt Q63921); further: assay procedure not described here
# Sequence (Q63921 whole entry): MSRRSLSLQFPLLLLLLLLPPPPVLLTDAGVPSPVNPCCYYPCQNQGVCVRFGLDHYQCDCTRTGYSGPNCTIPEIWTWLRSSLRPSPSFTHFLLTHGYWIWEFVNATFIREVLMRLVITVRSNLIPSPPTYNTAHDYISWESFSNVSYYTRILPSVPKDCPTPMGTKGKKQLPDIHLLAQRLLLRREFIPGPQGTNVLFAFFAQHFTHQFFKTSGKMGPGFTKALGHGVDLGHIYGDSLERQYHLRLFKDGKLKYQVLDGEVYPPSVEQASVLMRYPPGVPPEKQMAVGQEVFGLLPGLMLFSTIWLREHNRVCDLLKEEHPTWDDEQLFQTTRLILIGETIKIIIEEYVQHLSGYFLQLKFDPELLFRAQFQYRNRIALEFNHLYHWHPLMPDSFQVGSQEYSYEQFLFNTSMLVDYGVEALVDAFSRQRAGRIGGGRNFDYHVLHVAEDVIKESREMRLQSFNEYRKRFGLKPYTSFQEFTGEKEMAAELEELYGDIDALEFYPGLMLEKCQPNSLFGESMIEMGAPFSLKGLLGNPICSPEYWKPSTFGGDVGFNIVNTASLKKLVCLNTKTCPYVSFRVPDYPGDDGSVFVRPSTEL
# Type: functional

Take a look at these entries with their results.
{"columns": ["Molecule", "AC50"],
 "data": [
  ["CC(=O)OCC[N+](C)(C)C [ACETYLCHOLINE]", "> 30 µM"],
  ["COc1c(O[C@@H]2O[C@H](CO)[C@@H](O)[C@H](O)[C@H]2O)cc2c(c1OC)-c1ccc(SC)c(=O)cc1[C@@H](NC(C)=O)CC2 [THIOCOLCHICOSIDE]", "> 30 µM"]
]}

Query: Request the reported AC50 associated with Nc1ccc(C(=O)O)c(O)c1 [AMINOSALICYLIC ACID]
Result: > 30 µM

Query: Request the reported AC50 associated with N=C(N)NCCCCCCC(=O)NC(O)C(=O)NCCCCNCCCN (configuration not stated)
Result: > 30 µM

Query: Request the reported AC50 associated with C=C(C)[C@@H]1CCC(C)=C[C@H]1c1c(O)cc(CCCCC)cc1O [CANNABIDIOL]
Result: 0.771 µM

Query: Request the reported AC50 associated with C[C@@H]1C[C@H]2[C@@H]3C[C@H](F)C4=CC(=O)C=C[C@]4(C)[C@@]3(F)[C@@H](O)C[C@]2(C)[C@H]1C(=O)CO [DIFLUCORTOLONE]
Result: > 30 µM

Query: Request the reported AC50 associated with NS(=O)(=O)c1cc(C(=O)O)cc(N2CCCC2)c1Oc1ccccc1 [PIRETANIDE]
Result: > 30 µM

Query: Request the reported AC50 associated with O=C(Nc1c(Cl)cncc1Cl)c1ccc(OC(F)F)c(OCC2CC2)c1 [ROFLUMILAST]
Result: > 30 µM

Query: Request the reported AC50 associated with Clc1ccc2c(c1)C(c1ccccc1)=NCc1nncn1-2 [ESTAZOLAM]
Result: > 30 µM

Query: Request the reported AC50 associated with CCCCCCNC(=O)n1cc(F)c(=O)[nH]c1=O [CARMOFUR]
Result: > 30 µM

Query: Request the reported AC50 associated with C[C@H]1C[C@H]2[C@@H]3CCC4=CC(=O)C=C[C@]4(C)[C@@]3(Cl)[C@@H](O)C[C@]2(C)[C@@]1(O)C(=O)CO [BECLOMETHASONE]
Result: > 30 µM

Query: Request the reported AC50 associated with CCC(=O)OCC(=O)[C@@]1(OC(=O)CC)[C@@H](C)C[C@H]2[C@@H]3CCC4=CC(=O)C=C[C@]4(C)[C@@]3(F)[C@@H](O)C[C@@]21C [BETAMETHASONE DIPROPIONATE]
Result: > 10 µM

Query: Request the reported AC50 associated with "COc1ccc(/C=C/C(=O)Nc2ccccc2C(=O)O)cc1OC"
Result: 7.4 µM

Query: Request the reported AC50 associated with COc1cccc2c1C(=O)c1c(O)c3c(c(O)c1C2=O)C[C@@](O)(C(C)=O)C[C@@H]3O[C@H]1C[C@H](N)[C@H](O)[C@H](C)O1 [DAUNORUBICIN]
Result: > 30 µM

Query: Request the reported AC50 associated with COc1ccc2c(c1)[C@]13CCCC[C@@H]1[C@H](C2)N(C)CC3 [DEXTROMETHORPHAN]
Result: > 30 µM

Query: Request the reported AC50 associated with O=C(O)CSCC(=O)NC1CCSC1=O (configuration not stated) [ERDOSTEINE]
Result: > 30 µM

Query: Request the reported AC50 associated with Cc1cccc(N(C)C(=S)Oc2ccc3ccccc3c2)c1 [TOLNAFTATE]
Result: > 10 µM

---

# Target System: 5-hydroxytryptamine receptor 1A (Homo sapiens); further: assay procedure not described here
# Sequence (P08908 whole entry): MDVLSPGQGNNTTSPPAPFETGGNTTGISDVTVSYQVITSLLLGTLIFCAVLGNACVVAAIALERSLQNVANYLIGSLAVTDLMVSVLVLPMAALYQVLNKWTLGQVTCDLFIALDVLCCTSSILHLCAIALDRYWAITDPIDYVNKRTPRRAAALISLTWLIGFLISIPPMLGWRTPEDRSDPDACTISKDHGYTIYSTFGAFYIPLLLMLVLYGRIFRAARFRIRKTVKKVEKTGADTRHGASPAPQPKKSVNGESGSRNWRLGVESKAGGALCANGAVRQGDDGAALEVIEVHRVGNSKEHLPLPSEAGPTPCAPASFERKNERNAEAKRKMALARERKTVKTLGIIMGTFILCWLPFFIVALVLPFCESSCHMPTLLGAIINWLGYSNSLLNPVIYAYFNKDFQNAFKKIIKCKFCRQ
# Type: functional, cell-based
Reported AC50 by item:

{"columns": ["Molecule", "Recorded Result"],
 "data": [
  ["Clc1ccc2c(c1)C(c1ccccc1)=NCc1nncn1-2", "> 10 µM"]
]}

Please look at the following molecule next.
Query: Request the reported AC50 associated with "C[C@]12CC[C@H](O)CC1=CC[C@@H]1[C@@H]2CC[C@]2(C)C(c3cccnc3)=CC[C@@H]12"
Result: > 10 µM
